Values were extracted from paper PMC10456296.

- System: Prorocentrum donghaiense
- METHOD_SUMMARY: Antimicroalgal activity, inhibition of marine phytoplankton
- MEASUREMENT_CONDITIONS: Prorocentrum donghaiense, 24 h, read-out: IC50 Prorocentrum donghaiense
Provide the reported IC50 of each item.
One number for each entry, in µg/mL.

Examples from the recorded data:
C/C=C/CCC(O)C(O)/C=C/C=C/C(O)CO (stereo not shown): 37
CC=CCCC1(O)OC(C(O)C=CC)CC1O (stereo not shown): 22
C/C=C/CC[C@@H](O)[C@@H](O)C/C=C/[C@@H](O)[C@H](C)O: 30

The recorded IC50 for entry C/C=C/CCC(O)C(O)C/C=C/C(O)C(C)O (stereo not shown) equals 42
